Documented glycan array binding signal (z-score) across a set of binders
molecular target: Fuc(a1-2)Gal(b1-3)[Fuc(a1-4)]GlcNAc(b1-3)[Gal(b1-4)GlcNAc(b1-6)]Gal(b1-4)Glc; test: glycan array binding signal (z-score within array); higher = stronger binding; settings: glycan notation: IUPAC condensed, linker removed
The entries come from a sample that favours the strongest signals as a whole.
Answer using only a numeral; do not append any unit.

CCL1 (Coprinopsis cinerea) (protein) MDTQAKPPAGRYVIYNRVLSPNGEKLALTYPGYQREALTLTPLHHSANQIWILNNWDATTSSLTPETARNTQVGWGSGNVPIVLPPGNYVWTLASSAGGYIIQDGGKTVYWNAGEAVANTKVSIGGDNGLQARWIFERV
-0.144
LTL (Lotus tetragonolobus), P19664 (protein) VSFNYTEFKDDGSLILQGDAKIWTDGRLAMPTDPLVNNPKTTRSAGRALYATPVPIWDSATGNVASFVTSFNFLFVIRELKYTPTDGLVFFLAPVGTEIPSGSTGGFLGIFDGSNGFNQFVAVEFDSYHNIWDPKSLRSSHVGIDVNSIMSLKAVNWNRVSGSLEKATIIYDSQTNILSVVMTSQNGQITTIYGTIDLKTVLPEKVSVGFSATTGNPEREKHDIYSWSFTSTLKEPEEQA
-0.265
ECA (Erythrina cristagalli), P83410 (protein) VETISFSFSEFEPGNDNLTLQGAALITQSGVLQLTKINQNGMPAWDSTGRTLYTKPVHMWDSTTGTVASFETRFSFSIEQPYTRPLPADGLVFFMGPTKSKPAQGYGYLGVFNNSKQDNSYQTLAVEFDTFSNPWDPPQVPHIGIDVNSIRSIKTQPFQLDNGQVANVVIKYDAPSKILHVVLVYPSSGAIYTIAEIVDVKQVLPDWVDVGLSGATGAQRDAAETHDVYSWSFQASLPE
-0.309

Returns the measured glycan array binding signal (z-score) for the input binder. Input: Gal 3 (Homo sapiens), P17931 (protein) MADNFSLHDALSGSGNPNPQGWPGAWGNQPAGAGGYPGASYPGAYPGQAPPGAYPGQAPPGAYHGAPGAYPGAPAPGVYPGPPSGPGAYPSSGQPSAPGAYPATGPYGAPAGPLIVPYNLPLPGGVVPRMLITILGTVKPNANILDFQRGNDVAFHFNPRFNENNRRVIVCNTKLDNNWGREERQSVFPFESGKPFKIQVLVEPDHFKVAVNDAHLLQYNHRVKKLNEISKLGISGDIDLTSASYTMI
-0.331

Where do the numbers come from? From the supplement of paper PMC8728848.
